- target-entity: T1, PSMA Fab (006 PSMA Fab) (biotinylated (site not stated))
- T1 construct: also called Anti-PSMA Fab; anti-PSMA Fab
- assay-method-text: clonal phage ELISA on biotinylated PSMA Fab captured on neutravidin, anti-M13-HRP detection;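 note: crude clonal phage supernatants added to wells preincubated with PSMA antigen in blocking buffer or with blocking buffer alone, brief binding period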
Where no end group is shown, it is not given here.
# Phage binding ELISA signal, Anti-PSMA Fab listing for each entry below
Could you respond with only the numeric value?

TASMCKPPWMCLGF (cysteine pairing not given here; also: fused to pIII of bacteriophage, not shown: fused to pIII of the bacteriophage) [Phage-3339]: 1.83
IVDICKPSWMCEGF (cysteine pairing not given here; also: fused to pIII of bacteriophage, not shown: fused to pIII of the bacteriophage) [Phage-3336]: 1.84

We now examine a further binder.
Q) Any idea what its Phage binding ELISA signal, Anti-PSMA Fab is? The binder is YEQRCVPVWMCEGF (not shown: fused to pIII of the bacteriophage) [Phage-3348]
A) 1.82
